Tested on: HepG2 cells
Assay: HepG2 cytotoxicity assay
Settings: HepG2 cytotoxicity unified across the three screens
Description: Briefly, HepG2 cells were seeded onto compound-treated 384 well plates at a density of 2,500 cells per well in Minimal Essential Medium (MEM) plus 10% fetal bovine serum and 1% non-essential amino acids solution (NEAA). […] Cell viability was then measured in a fluorescent plate reader and percent inhibition calculated with respect to positive and negative controls.
Decide using Unified cytotox alone. Strictly below 10 µM: yes (1). Equal to or above 10 µM: no (0).

Example entries and their recorded answers appear below.
{"COMPOUND": "CN(C)CCNCc1cccc(-c2ccc3c(Nc4ccc(Oc5ccccn5)cc4)ccnc3c2)c1 [TCMDC-138493]", "TARGET_ENTITY": "HepG2 cells", "GROUP_LABEL": "yes (1)"}
{"COMPOUND": "C=CCN(C(=O)c1ccc(Cl)c([N+](=O)[O-])c1)c1nc(-c2ccccc2)cs1 [TCMDC-124436]", "TARGET_ENTITY": "HepG2 cells", "GROUP_LABEL": "no (0)"}
{"COMPOUND": "Br.C/C=C/C=C/C1=NCCc2cc(OCCC)ccc21 [TCMDC-137442]", "TARGET_ENTITY": "HepG2 cells", "GROUP_LABEL": "no (0)"}
{"COMPOUND": "CN1CCN(CCNc2c3ccccc3nc3c2ccc2ccccc23)CC1.Cl [TCMDC-137723]", "TARGET_ENTITY": "HepG2 cells", "GROUP_LABEL": "yes (1)"}
{"COMPOUND": "Cc1c(Cn2ncc(N3CCC(N)CC3)c(Cl)c2=O)cccc1NC(=O)Nc1ccc(-c2ccccc2)cc1.O=C(O)C(F)(F)F [TCMDC-141931]", "TARGET_ENTITY": "HepG2 cells", "GROUP_LABEL": "no (0)"}

Query :: Lab log: compare recorded Unified cytotox with 10 µM; is it strictly lower for c1cc(C2=N[C@H]3CCCC[C@@H]3N2)ccc1OCCCOc1ccc(C2=N[C@@H]3CCCC[C@H]3N2)cc1 [TCMDC-137803] ?
Result :: no (0)

Query :: Similarly, Cc1ccccc1OCC(O)CNC1CCC(NCC(O)COc2ccccc2C)CC1 (stereo not shown) [TCMDC-125142] ?
Result :: yes (1)

Query :: Similarly, O=C(O)C(F)(F)F.O=S(=O)(NCCN1CCCC1)c1cccc(-c2ccc(CNC3Cc4ccccc4C3)cc2)c1 [TCMDC-132241] ?
Result :: yes (1)

Query :: Similarly, Cc1ccc(C(=O)Nc2ccc(Nc3ccnc4cc(-c5ccccn5)ccc34)cc2O)cc1.Cl [TCMDC-138205] ?
Result :: yes (1)

Query :: Similarly, CN1CCN(CCCNCc2cccc(-c3ccc(CNCCc4ccccc4)cc3)c2)CC1 [TCMDC-140643] ?
Result :: no (0)

Query :: Similarly, Fc1ccc2[nH]c(-c3ccc(-c4ccc(CN5CCC(CCN6CCCCC6)CC5)cc4)cc3)nc2c1.O=C(O)C(F)(F)F [TCMDC-133924] ?
Result :: yes (1)

Query :: Similarly, CN(C)CCCOc1ccc(CN2CCC(c3c[nH]c4ccc(NCC5CCCCC5)cc34)CC2)cc1.O=C(O)C(F)(F)F [TCMDC-140737] ?
Result :: yes (1)

---

Entries and their Unified cytotox values follow.
Test system: HepG2 cells
Assay: HepG2 cytotoxicity assay
Settings: HepG2 values of the three screens unified
Please answer using a numeric value trailed by its unit.

Please review the following examples before continuing.
{"COMPOUND": "C=CC(C)C1OC(=O)c2cc(OC)cc(OC)c21 (stereo not drawn)", "Unified cytotox": "1.01 µM"}
{"COMPOUND": "CC(ON1C(N)=NC(N)=NC1(C)C)c1ccccc1 (stereo not drawn)", "Unified cytotox": "0.0372 µM"}
{"COMPOUND": "Br.CC(CON1C(N)=NC(N)=NC1(C)C)c1ccc(Cl)cc1Cl (stereo not drawn)", "Unified cytotox": "0.001 µM"}
{"COMPOUND": "CN1c2ccc([N+](=O)[O-])cc2C(C)(C)C12C=Cc1cc(Br)cc([N+](=O)[O-])c1O2 (stereo not drawn)", "Unified cytotox": "29.17 µM"}
{"COMPOUND": "Cc1ccc(C)c(CC(=O)N2CCC(n3c(C)nc4ccc(F)cc43)CC2)c1", "Unified cytotox": "57.54 µM"}
{"COMPOUND": "CC(C)(CN)c1nc(-c2ccc(Cl)c(O)c2)c(-c2ccncc2)[nH]1.Cl", "Unified cytotox": "1.91 µM"}

Query :: Item under review: Cc1[nH]c(C)c(-c2ccc(OCc3cc(C(F)(F)F)cc(C(F)(F)F)c3)nc2)c(=O)c1Br . Reported Unified cytotox?
Result :: 0.71 µM

Query :: Similarly, Cc1[nH]c(C)c(-c2ccc(-c3ccccc3F)nc2)c(=O)c1Cl ?
Result :: 100.00 µM

Query :: Similarly, Cc1[nH]c(C)c(-c2ccc(-c3ccccc3Cl)nc2)c(=O)c1Cl ?
Result :: 100.00 µM

---

System: HepG2 cells
Test: HepG2 cytotoxicity assay
Conditions: HepG2 values of the three screens unified
Description: Briefly, HepG2 cells were seeded onto compound-treated 384 well plates at a density of 2,500 cells per well in Minimal Essential Medium (MEM) plus 10% fetal bovine serum and 1% non-essential amino acids solution (NEAA). […] Cell viability was then measured in a fluorescent plate reader and percent inhibition calculated with respect to positive and negative controls.
OBSERVATION_TYPE: Unified cytotox (µM)
Entry rule: numbers only, all in µM.

Please review the following examples before continuing.
{"COMPOUND": "CCCN1CCN(CCNc2c3ccccc3nc3ccccc23)CC1", "TARGET_ENTITY": "HepG2 cells", "READING_UNIT": "µM", "ASSAY_RESULT": 7.41}
{"COMPOUND": "Nc1nc(N)c2c(ccc3c2ccn3Cc2cccc(F)c2)n1", "TARGET_ENTITY": "HepG2 cells", "READING_UNIT": "µM", "ASSAY_RESULT": 0.11}
{"COMPOUND": "CCCC(CCC)n1ccc2c3c(N)nc(N)nc3ccc21.Cl", "TARGET_ENTITY": "HepG2 cells", "READING_UNIT": "µM", "ASSAY_RESULT": 0.0017}
{"COMPOUND": "Cl.c1ccc(CN2CCN(CCNc3c4ccccc4nc4ccccc34)CC2)cc1", "TARGET_ENTITY": "HepG2 cells", "READING_UNIT": "µM", "ASSAY_RESULT": 23.99}
{"COMPOUND": "Cc1[nH]c(C)c(-c2ccc(CCc3cccc(C(F)(F)F)c3)nc2)c(=O)c1Cl", "TARGET_ENTITY": "HepG2 cells", "READING_UNIT": "µM", "ASSAY_RESULT": 7.08}
{"COMPOUND": "CCCCOc1c(CCNCCCCNCCc2cc(OC)c3ccccc3c2OCCCC)cc(OC)c2ccccc12.CS(=O)(=O)O", "TARGET_ENTITY": "HepG2 cells", "READING_UNIT": "µM", "ASSAY_RESULT": 2.54}
{"COMPOUND": "COc1ccc2nccc([C@@H](O)CN3C4CCC3CC(NCc3ccc5c(n3)NC(=O)CS5)C4)c2n1.Cl (some centres unmarked)", "TARGET_ENTITY": "HepG2 cells", "READING_UNIT": "µM", "ASSAY_RESULT": 38.90}
{"COMPOUND": "C/C=C/COc1ccc(-c2c(C)[nH]c(C)c(Cl)c2=O)cc1", "TARGET_ENTITY": "HepG2 cells", "READING_UNIT": "µM", "ASSAY_RESULT": 100.00}
{"COMPOUND": "Cc1cc(F)ccc1-c1nc(NCC(O)CNCCc2ccccc2)nc2c1ccc(=O)n2-c1c(F)cccc1F.O=C(O)C(F)(F)F (centres unmarked)", "TARGET_ENTITY": "HepG2 cells", "READING_UNIT": "µM", "ASSAY_RESULT": 11.63}
{"COMPOUND": "Cc1[nH]c(C)c(-c2ccc(-c3cccc(OC(F)(F)F)c3)nc2)c(=O)c1Cl", "TARGET_ENTITY": "HepG2 cells", "READING_UNIT": "µM", "ASSAY_RESULT": 8.51}

Query :: Param readout = Unified cytotox; param system = HepG2 cells; param query = Cc1[nH]c(C)c(-c2ccc(OCc3ccc(OC(F)(F)F)cc3)nc2)c(=O)c1Br ; response: value
Result :: 87.10

Query :: Similarly, Cc1[nH]c(C)c(-c2ccc(/C=C/c3ccccn3)cc2)c(=O)c1Cl ?
Result :: 100.00

Query :: Similarly, Cc1cc(Nc2ncc(C#N)c(Nc3ccccc3C(N)=O)n2)ccc1N1CCN(C)CC1.Cl ?
Result :: 2.19

Query :: Similarly, CCN1CCN(CCCNc2c3ccccc3nc3ccccc23)CC1.Cl ?
Result :: 9.12

Query :: Similarly, CC(C)Cn1ccc2c3c(N)nc(N)nc3ccc21 ?
Result :: 0.25

Query :: Similarly, Cc1[nH]c(C)c(-c2ccc(-c3ccccc3C(F)(F)F)nc2)c(=O)c1Br ?
Result :: 100.00

Query :: Similarly, Nc1nc(N)c2c(ccc3c2ccn3CCCCO)n1 ?
Result :: 0.0759
